- system.tested: T1, full-length beta-Catenin (Uniprot ID P35222) (Homo sapiens (Human), UniProt P35222 2-781)
- T1 construct: also called bCat; B-Catenin
- T1 sequence: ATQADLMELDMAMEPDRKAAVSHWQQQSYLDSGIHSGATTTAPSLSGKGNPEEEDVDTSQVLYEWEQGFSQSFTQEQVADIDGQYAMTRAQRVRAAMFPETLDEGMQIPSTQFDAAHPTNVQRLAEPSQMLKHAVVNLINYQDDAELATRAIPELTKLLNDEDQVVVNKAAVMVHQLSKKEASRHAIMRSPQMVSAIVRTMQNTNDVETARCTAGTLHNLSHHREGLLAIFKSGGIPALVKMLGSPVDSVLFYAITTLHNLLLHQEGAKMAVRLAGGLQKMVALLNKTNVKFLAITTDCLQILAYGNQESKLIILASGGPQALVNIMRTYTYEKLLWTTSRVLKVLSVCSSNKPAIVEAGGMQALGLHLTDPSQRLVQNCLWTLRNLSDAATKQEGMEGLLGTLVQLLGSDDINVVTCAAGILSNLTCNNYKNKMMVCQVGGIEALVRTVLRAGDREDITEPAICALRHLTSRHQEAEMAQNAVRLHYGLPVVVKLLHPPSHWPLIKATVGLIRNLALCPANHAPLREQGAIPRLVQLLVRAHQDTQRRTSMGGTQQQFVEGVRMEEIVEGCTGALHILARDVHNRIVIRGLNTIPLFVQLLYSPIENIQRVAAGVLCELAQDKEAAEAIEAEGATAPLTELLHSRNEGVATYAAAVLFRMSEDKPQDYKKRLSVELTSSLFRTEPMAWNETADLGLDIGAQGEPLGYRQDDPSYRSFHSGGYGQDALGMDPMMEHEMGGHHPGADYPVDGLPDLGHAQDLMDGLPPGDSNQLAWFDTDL
- assay.text: fluorescence polarization competition vs 5FAM-TCF4(10-53) on full-length beta-catenin
Starred links: 1 amine or outer side, 2 acyl side, 3 side chain; linkers in the order of their positions; H or OH if unused. Positions of bridges follow the written chain, without caps; N, C: chain ends. Non-standard residues stand in square brackets, D forms with d. Primed or numbered codes have the meaning given here. PyrS2″ = (S)-3-amino-1-((pent-4-en-1-yloxy)carbonyl)pyrrolidine-3-carboxylic acid (stapling residue), C=CCCCOC(=O)N1CC[C@@](N[*:1])(C(=O)[*:2])C1; B5(16) = 2-amino-2-(pent-4-en-1-yl)hept-6-enoic acid = 2,2-bis(4-pentenyl)glycine (stitching residue), C=CCCCC(CCCC=C)(N[*:1])C(=O)[*:2]; PyrS2 = (S)-3-amino-1-((pent-4-en-1-yloxy)carbonyl)pyrrolidine-3-carboxylic acid, C=CCCCOC(=O)N1CC[C@@](N[*:1])(C(=O)[*:2])C1; B5 = 2-amino-2-(pent-4-en-1-yl)hept-6-enoic acid, C=CCCCC(CCCC=C)(N[*:1])C(=O)[*:2]; Phe(2-Cl) = N[C@@H](Cc1ccccc1Cl)C(=O)O; Bta = N[C@@H](Cc1csc2ccccc12)C(=O)O; αAllylPro = C=CC[C@@]1(C(=O)O)CCCN1
experimental.endpoint: pIC50
Just the number, please; pIC50 means minus log10 of the concentration in mol/L.

Previously resolved entries follow.
- Ac-[αAllylPro]DF[B5(16)]DDAAFL[PyrS2″][Phe(2-Cl)][Bta][dT]-NH2 (staple 1-4, 4-11, Stapled (stitched) peptide composition; olefin isomer not specified) [I-1146]: 7.48
- Ac-[αAllylPro]DF[B5(16)]DDLLFS[PyrS2″][Phe(2-Cl)][Bta]Q-NH2 (staple 1-4, 4-11, Stapled (stitched) peptide composition; olefin isomer not specified) [I-1155]: 7.22
- Ac-[αAllylPro]DF[B5]DDAAFS[PyrS2][Phe(2-Cl)][Bta][dT]-NH2 (staple 1-4, 4-11, Stapled (stitched) peptide composition; olefin isomer not specified) [I-1142]: 7.66

As a next step, examine the binder that follows.
**Query** For Ac-[αAllylPro]DF[B5(16)]DDLAFS[PyrS2″][Phe(2-Cl)][Bta]Q-NH2 (staple 1-4, 4-11, Stapled (stitched) peptide composition; olefin isomer not specified) [I-1153] , what is its reported pIC50?
**Result** 7.92
